- Target or system: A156S mutant of the HCV NS3/4A 1b protease enzyme (Hepatitis C virus genotype 1b, UniProt P26663, A1182S)
- Construct: 10× stocks of NS3/4A protease enzyme from Bioenza
- Method summary: HCV protease FRET assay, A156S mutant
- Details: read-out: Inhibition, HCV A156S (IC50)
- Experimental: HCV Protease FRET Assay for Mutated NS3/4A 1b Enzymes The protocol is a modified FRET-based assay (v—02) from In Vitro Resistance Studies of HCV Serine Protease Inhibitors, 2004, JBC, vol. 279, No. 17, pp 17508-17514. Inherent potency of compounds was assessed against A156S, A156T, D168A, and D168V mutants of the HCV NS3/4A 1b protease enzyme as follows: […]
pIC50: −log10 of the molar value.
Experimental readout: pIC50

Use these answered entries as a reference point.
[[record]]
compound = "C=CC(=O)N(C)C[C@H](NC(=O)OC(C)(C)C)C(=O)N1C[C@H](OC(=O)N2Cc3cccc(F)c3C2)C[C@H]1C(=O)N[C@]1(C(=O)NS(=O)(=O)C2CC2)C[C@H]1C=C"
recorded_measurement = "> 8.00"

[[record]]
compound = "C=C[C@@H]1C[C@]1(NC(=O)[C@@H]1C[C@@H](Oc2cc(-c3ccccc3)nc3cc(OC)ccc23)CN1C(=O)C(NC(=O)OC(C)(C)C)[C@@H](C)OC(=O)/C=C/C)C(=O)NS(=O)(=O)C1CC1 (stereo partly drawn)"
recorded_measurement = "> 8.00"


Inquiry: Let me know recorded pIC50 for CC(C)(C)OC(=O)NC1CN(C(=O)CCl)CCC/C=C\[C@@H]2C[C@@]2(C(=O)NS(=O)(=O)C2CC2)NC(=O)[C@@H]2C[C@@H](OC(=O)N3Cc4cccc(F)c4C3)CN2C1=O (stereo partly drawn) , thanks.
Reply text: > 8.00

###

pIC50 overview
- Target or system: D168A mutant of the HCV NS3/4A 1b protease enzyme (Hepatitis C virus genotype 1b, UniProt P26663, D1194A)
- Construct: 10× stocks of NS3/4A protease enzyme from Bioenza
- Sequence (P26663 1013-1657, looked up, stated change not applied): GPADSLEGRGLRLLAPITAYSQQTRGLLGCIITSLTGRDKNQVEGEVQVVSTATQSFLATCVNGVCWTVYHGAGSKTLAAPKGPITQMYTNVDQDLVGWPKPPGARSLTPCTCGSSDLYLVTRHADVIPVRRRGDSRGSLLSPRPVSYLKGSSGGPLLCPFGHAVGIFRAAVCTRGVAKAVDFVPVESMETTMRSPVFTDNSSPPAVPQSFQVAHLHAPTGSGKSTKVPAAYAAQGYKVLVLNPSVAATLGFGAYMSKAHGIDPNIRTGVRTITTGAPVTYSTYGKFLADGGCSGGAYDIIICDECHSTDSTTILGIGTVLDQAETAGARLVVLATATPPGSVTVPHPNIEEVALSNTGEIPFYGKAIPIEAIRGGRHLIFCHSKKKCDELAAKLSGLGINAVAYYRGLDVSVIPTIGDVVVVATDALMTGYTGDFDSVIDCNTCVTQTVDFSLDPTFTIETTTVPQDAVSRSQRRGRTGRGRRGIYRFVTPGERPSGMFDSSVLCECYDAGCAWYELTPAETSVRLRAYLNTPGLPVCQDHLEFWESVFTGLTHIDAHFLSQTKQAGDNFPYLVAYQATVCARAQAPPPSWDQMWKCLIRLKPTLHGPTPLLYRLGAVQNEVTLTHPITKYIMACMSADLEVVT
- Method summary: HCV protease FRET assay, D168A mutant
- Details: read-out: Inhibition, HCV D168A (IC50)
pIC50: −log10 of the molar value.

Use these answered entries as a reference point.
[[record]]
compound = "C=C[C@@H]1C[C@]1(NC(=O)[C@@H]1C[C@@H](Oc2cc(-c3ccccc3)nc3cc(OC)ccc23)CN1C(=O)C(NC(=O)OC(C)(C)C)[C@@H](C)OC(=O)/C=C/C)C(=O)NS(=O)(=O)C1CC1 (stereo partly drawn) [Compound 3]"
recorded_measurement = "6.00 to 7.00"

[[record]]
compound = "C=CC(=O)N(C)C[C@H](NC(=O)OC(C)(C)C)C(=O)N1C[C@H](OC(=O)N2Cc3cccc(F)c3C2)C[C@H]1C(=O)N[C@]1(C(=O)NS(=O)(=O)C2CC2)C[C@H]1C=C [Compound 4]"
recorded_measurement = "7.00 to 8.00"


Continue with the compound presented below.
Inquiry: Let me know recorded pIC50 for CC(C)(C)OC(=O)NC1CN(C(=O)CCl)CCC/C=C\[C@@H]2C[C@@]2(C(=O)NS(=O)(=O)C2CC2)NC(=O)[C@@H]2C[C@@H](OC(=O)N3Cc4cccc(F)c4C3)CN2C1=O (stereo partly drawn) [Compound 8] , thanks.
Reply text: 7.00 to 8.00

###

- Target or system: R155K mutant of the HCV NS3/4A 1b protease enzyme (Hepatitis C virus genotype 1b, UniProt P26663, R1181K)
- Construct: 10× stocks of NS3/4A protease enzyme from Bioenza
- Method summary: HCV protease FRET assay, R155K mutant
- Details: read-out: Inhibition, HCV R155K (IC50)
Experimental readout: IC50

[[record]]
compound = "CC(C)(C)OC(=O)NC1CN(C(=O)CCl)CCC/C=C\\[C@@H]2C[C@@]2(C(=O)NS(=O)(=O)C2CC2)NC(=O)[C@@H]2C[C@@H](OC(=O)N3Cc4cccc(F)c4C3)CN2C1=O (some centres unmarked) [Compound 8]"
recorded_measurement = "10 to 100 nM"


Inquiry: Let me know recorded IC50 for C=CC(=O)N(C)C[C@H](NC(=O)OC(C)(C)C)C(=O)N1C[C@H](OC(=O)N2Cc3cccc(F)c3C2)C[C@H]1C(=O)N[C@]1(C(=O)NS(=O)(=O)C2CC2)C[C@H]1C=C [Compound 4] , thanks.
Reply text: 10 to 100 nM

###

IC50 overview
- Target or system: D168V mutant of the HCV NS3/4A 1b protease enzyme (Hepatitis C virus genotype 1b, UniProt P26663, D1194V)
- Construct: 10× stocks of NS3/4A protease enzyme from Bioenza
- Method summary: HCV protease FRET assay, D168V mutant
- Details: read-out: Inhibition, HCV D168V (IC50)

[[record]]
compound = "C=CC(=O)N[C@H](C)C(=O)N1C[C@H](Oc2cc(-c3ccccc3)nc3cc(OC)ccc23)C[C@H]1C(=O)N[C@]1(C(=O)NS(=O)(=O)C2CC2)C[C@H]1C=C"
recorded_measurement = "100 to 1000 nM"

[[record]]
compound = "C=CC(=O)N(C)C[C@H](NC(=O)OC(C)(C)C)C(=O)N1C[C@H](OC(=O)N2Cc3cccc(F)c3C2)C[C@H]1C(=O)N[C@]1(C(=O)NS(=O)(=O)C2CC2)C[C@H]1C=C"
recorded_measurement = "10 to 100 nM"


Continue with the compound presented below.
Inquiry: Let me know recorded IC50 for C=C[C@@H]1C[C@]1(NC(=O)[C@@H]1C[C@@H](Oc2cc(-c3ccccc3)nc3cc(OC)ccc23)CN1C(=O)C(NC(=O)OC(C)(C)C)[C@@H](C)OC(=O)/C=C/C)C(=O)NS(=O)(=O)C1CC1 (stereo partly drawn) , thanks.
Reply text: 1000 to 10000 nM

###

IC50 overview
- Target or system: A156T mutant of the HCV NS3/4A 1b protease enzyme (Hepatitis C virus genotype 1b, UniProt P26663, A1182T)
- Construct: 10× stocks of NS3/4A protease enzyme from Bioenza
- Method summary: HCV protease FRET assay, A156T mutant
- Details: read-out: Inhibition, HCV A156T (IC50)

[[record]]
molecule = "C=CC(=O)N(C)C[C@H](NC(=O)OC(C)(C)C)C(=O)N1C[C@H](OC(=O)N2Cc3cccc(F)c3C2)C[C@H]1C(=O)N[C@]1(C(=O)NS(=O)(=O)C2CC2)C[C@H]1C=C"
recorded_measurement = "< 10 nM"


Continue with the molecule presented below.
Inquiry: Let me know recorded IC50 for C=C[C@@H]1C[C@]1(NC(=O)[C@@H]1C[C@@H](Oc2cc(-c3ccccc3)nc3cc(OC)ccc23)CN1C(=O)C(NC(=O)OC(C)(C)C)[C@@H](C)OC(=O)/C=C/C)C(=O)NS(=O)(=O)C1CC1 (some centres unmarked) , thanks.
Reply text: 100 to 1000 nM

###

pIC50 overview
- Target or system: wild type HCV NS3/4A 1b protease enzyme (Hepatitis C virus genotype 1b)
- Construct: 10× stocks of NS3/4A protease enzyme from Bioenza
- Method summary: HCV protease FRET assay, wild type NS3/4A 1b enzyme
pIC50: −log10 of the molar value.

Use these answered entries as a reference point.
[[record]]
molecule = "C=C[C@@H]1C[C@]1(NC(=O)[C@@H]1C[C@@H](Oc2cc(-c3ccccc3)nc3cc(OC)ccc23)CN1C(=O)C(NC(=O)OC(C)(C)C)[C@@H](C)OC(=O)/C=C/C)C(=O)NS(=O)(=O)C1CC1 (stereo partly drawn) [Compound 3]"
recorded_measurement = "> 8.00"

[[record]]
molecule = "CC(C)(C)OC(=O)NC1CN(C(=O)CCl)CCC/C=C\\[C@@H]2C[C@@]2(C(=O)NS(=O)(=O)C2CC2)NC(=O)[C@@H]2C[C@@H](OC(=O)N3Cc4cccc(F)c4C3)CN2C1=O (stereo partly drawn) [Compound 8]"
recorded_measurement = "> 8.00"


Inquiry: Let me know recorded pIC50 for C=CC(=O)N(C)C[C@H](NC(=O)OC(C)(C)C)C(=O)N1C[C@H](OC(=O)N2Cc3cccc(F)c3C2)C[C@H]1C(=O)N[C@]1(C(=O)NS(=O)(=O)C2CC2)C[C@H]1C=C [Compound 4] , thanks.
Reply text: > 8.00
